Origin of the recorded values: patent US20100055103A1

- TARGET_UNDER_TEST: T1, Human IL-17F (R&D Systems, cat #1335-IL-025/CF) (UniProt Q96PD4 31-163)
- T1 chain: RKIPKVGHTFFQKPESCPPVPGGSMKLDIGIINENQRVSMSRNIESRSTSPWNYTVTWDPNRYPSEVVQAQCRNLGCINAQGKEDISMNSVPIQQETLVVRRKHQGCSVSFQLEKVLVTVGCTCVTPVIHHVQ
- MEASUREMENT_DESCRIPTION: BIAcore
Attribute: Kd
Output spec: scalar in pM, unitless text.

Worked cases, answers included:
[[record]]
binder = "YW279.1.21 (antibody, V domains shown) VH: EVQLVESGGGLVQPGGSLRLSCAASGFSFTSYMMSWVRQAPGKGLEWVSTIYPESGATDYADSVKGRFTISADTSKNTAYLQMNSLRAEDTAVYYCAREGYYYSTSIKYYPWFDYWGQGTLVTVSS VL: DIQMTQSPSSLSASVGDRVTITCRASQSISSYLAWYQQKPGKAPKLLIYGASSRASGVPSRFSGSGSGTDFTLTISSLQPEDFATYYCQQRYSWHTTFGQGTKVEIKR"
unit_string = "pM"
quantitative_readout = 82.3

[[record]]
binder = "YW279.1.22 (antibody, V domains shown) VH: EVQLVESGGGLVQPGGSLRLSCAASGFSFPSYFISWVRQAPGKGLEWVSMIYPVSGATVYADSVKGRFTISADTSKNTAYLQMNSLRAEDTAVYYCAREGYYYSTSIKYYPWFDYWGQGTLVTVSS VL: DIQMTQSPSSLSASVGDRVTITCRASQSISSYLAWYQQKPGKAPKLLIYGASSRASGVPSRFSGSGSGTDFTLTISSLQPEDFATYYCQQRYSLPITFGQGTKVEIKR"
unit_string = "pM"
quantitative_readout = 1760

[[record]]
binder = "YW278.15.9 (antibody, V domains shown) VH: EVQLVESGGGLVQPGGSLRLSCAASGFTFTDYDISWVRQAPGKGLEWVASIDPYEGYTYYADSVKGRFTISADTSKNTAYLQMNSLRAEDTAVYYCARYLYWSYVMDYWGQGTLVTVSS VL: DIQMTQSPSSLSASVGDRVTITCRASQDVSTAVAWYQQKPGKAPKLLIYSASFLYSGVPSRFSGSGSGTDFTLTISSLQPEDFATYYCQQSQNPQTTFGQGTKVEIKR"
unit_string = "pM"
quantitative_readout = 18.1


Now take the following binder into account.
Quick one: Kd of YW278.15.2.D54E (antibody, V domains shown) VH: EVQLVESGGGLVQPGGSLRLSCAASGFSFIDYDISWVRQAPGKGLEWVASISPYEGYTYYADSVKGRFTISADTSKNTAYLQMNSLRAEDTAVYYCARYLYWSYVMDYWGQGTLVTVSS VL: DIQMTQSPSSLSASVGDRVTITCRASQDVSTAVAWYQQKPGKAPKLLIYSASFLYSGVPSRFSGSGSGTDFTLTISSLQPEDFATYYCQQYYIYPATFGQGTKVEIKR ? 12
